tested on: acute renal failure induced by renal ischemia followed by reperfusion in rats; assay: Effect on acute renal failure induced by renal ischemia-reperfusion; assay type: in vivo, rat (Sprague-Dawley); details: 50 mg/kg, orally, 20 hours of reperfusion
observable: Blood urea nitrogen (mg/dL)
Give the number; mg/dL is assumed, so skip it.

I have this compound here, O=C1SC(=Cc2cccs2)C(=O)N1CCCCSc1ccncc1 , and I need its recorded Blood urea nitrogen. 62.4

I have this compound here, CCCC=C1SC(=O)N(CCCCSc2ccncc2)C1=O , and I need its recorded Blood urea nitrogen. 64

I have this compound here, Cl.O=C(N(CCCSc1ccncc1)Cc1ccccc1)C(F)(F)F , and I need its recorded Blood urea nitrogen. 68

I have this compound here, O=C1SC(=Cc2ccccc2)C(=O)N1CCCCSc1ccncc1 , and I need its recorded Blood urea nitrogen. 76.8

Values compiled from patent US5457106A.
